System: Radical scavenging activity
procedure-details: Antioxidant activity assessed as DPPH radical scavenging activity after 30 mins
Assay type: functional
Parameters: concentration or dose not given beside the values
recorded-endpoint: inhibition (%)
Answers are plain numbers, in %.

| compound | experimental-target | recorded-endpoint | recorded-value |
| --- | --- | --- | --- |
| CCC12C=CC(O1)C(C(=O)c1ccccc1)C2c1ccccc1Br (configuration not stated) | Radical scavenging activity | inhibition | 17.7 |

Go through the items and report each one's inhibition.
1. CCC12C=CC(O1)C(C(=O)c1ccccc1)C2c1ccc(Cl)cc1 (configuration not stated)
2. CCC12C=CC(O1)C(C(=O)c1ccccc1)C2c1ccc(Br)cc1 (configuration not stated)
3. CCC12C=CC(O1)C(C(=O)c1ccccc1)C2c1cccc(Br)c1 (configuration not stated)
4. CCC12C=CC(O1)C(C(=O)c1ccccc1)C2c1ccc(F)cc1 (configuration not stated)
5. CCC12C=CC(O1)C(C(=O)c1ccccc1)C2c1ccccc1 (configuration not stated)

Response line:
35.5
30.5
23.2
42.4
58.9

Prompt line: State its inhibition for this compound: CCC12C=CC(O1)C(C(=O)c1ccc(Br)cc1)C2c1ccccc1 (configuration not stated)
Response line: 32.6

---

Provide the recorded MIC for the entries that follow.
Test system: Vibrio cholerae
procedure-details: Antibacterial activity against Vibrio cholerae after 18 to 24 hrs by microdilution broth assay
Format: functional
Give bare numbers, in µg/mL.

In the examples that follow, each entry is paired with its recorded MIC.
| molecule | recorded-value |
| --- | --- |
| O=C(O)c1cn(C2CC2)c2cc(N3CCNCC3)c(F)cc2c1=O | 15 |
| CCC12C=CC(O1)C(C(=O)c1ccccc1)C2c1ccccc1F (centres undefined) | 625 |

Go through the items and report each one's MIC.
1. CCC12C=CC(O1)C(C(=O)c1ccccc1)C2c1cccc(Br)c1 (centres undefined)
2. CCC12C=CC(O1)C(C(=O)c1ccccc1)C2c1ccc([N+](=O)[O-])cc1 (centres undefined)
3. CCC12C=CC(O1)C(C(=O)c1ccccc1)C2c1ccc(Cl)cc1 (centres undefined)

Response line:
1. 625
2. 1250
3. 625

Go through the items and report each one's MIC.
1. CCC12C=CC(O1)C(C(=O)c1ccccc1)C2c1ccc(C#N)cc1 (centres undefined)
2. CCC12C=CC(O1)C(C(=O)c1ccccc1)C2c1cccc(OC)c1 (centres undefined)
3. CCC12C=CC(O1)C(C(=O)c1ccccc1)C2c1cccc(F)c1 (centres undefined)

Response line:
1250
625
625

Prompt line: State its MIC for this molecule: CCC12C=CC(O1)C(C(=O)c1ccc(Br)cc1)C2c1ccccc1 (centres undefined)
Response line: 312
